ASSAY_OVERVIEW: Toxicokinetic (TK) study in rats, 28-day
Type: in vivo, rat
EXPERIMENTAL_CONTEXT: female, rat, in vivo, 200 mg/kg, Study Day 28, Female
QUANTITY_NAME: Tmax (h)
Please give a number only; it is taken to be in h.

Ask: Give the measured Tmax for C=CC(=O)N1CC[C@@H](n2nc(-c3ccc(Oc4c(F)c(F)cc(F)c4F)cc3F)c3c(N)ncnc32)C1
Reply: 8

---

Exercise: state measured pIC50 for each of the compounds provided.
MEASURED_TARGET: BTK wild type (Homo sapiens (Human))
ASSAY_OVERVIEW: Inhibition assay of BTK kinase activity (HTRF)
Type: biochemical
Protocol: Inhibition Assay of BTK Kinase Activity: The enzyme reaction mixture of BTK wild type standard HTRF assay contained 1 nM BTK wild type, 1 μM biotin-TK1 peptide, and 30 μM ATP in a buffer. The enzyme reaction were carried out at room temperature for 60 minutes. […] The plates were incubated at room temperature for 60 minutes and then read in the Envision plate reader.
pIC50: −log10 of the molar value.

Ask: Give the measured pIC50 for Nc1ncnc2c1c(-c1ccc(Oc3c(F)c(F)cc(F)c3F)cc1F)nn2[C@@H]1CCN(C(=O)CCl)C1
Reply: > 8.00

Ask: Give the measured pIC50 for C=CC(=O)NC(C)(C)Cn1nc(-c2ccc(Oc3c(F)c(F)cc(F)c3F)cc2F)c2c(N)ncnc21
Reply: > 8.00

---

ASSAY_OVERVIEW: Toxicokinetic (TK) study in dogs, 28-day
Assay type: in vivo, dog
EXPERIMENTAL_CONTEXT: male, dog, in vivo, 45 mg/kg/day, Study Day 28, Male
QUANTITY_NAME: Tmax
Phrase the answer as number then unit, nothing more needed.

Ask: Give the measured Tmax for C=CC(=O)N1CC[C@@H](n2nc(-c3ccc(Oc4c(F)c(F)cc(F)c4F)cc3F)c3c(N)ncnc32)C1
Reply: 2 h

---

ASSAY_OVERVIEW: Toxicokinetic (TK) study in rats, 28-day
Format: in vivo, rat
EXPERIMENTAL_CONTEXT: male, rat, in vivo, 40 mg/kg, Study Day 1, Male, read-out: AUC0-24 h
QUANTITY_NAME: AUC(0-t) (ng·h/mL)
Please give a number only; it is taken to be in ng·h/mL.

Ask: Give the measured AUC(0-t) for C=CC(=O)N1CC[C@@H](n2nc(-c3ccc(Oc4c(F)c(F)cc(F)c4F)cc3F)c3c(N)ncnc32)C1 [Compound 45]
Reply: 13700

---

ASSAY_OVERVIEW: Toxicokinetic (TK) study in dogs, 28-day
Type: in vivo, dog
EXPERIMENTAL_CONTEXT: male, dog, in vivo, 150 mg/kg/day, Study Day 1, Male
QUANTITY_NAME: Cmax (ng/mL)
Please give a number only; it is taken to be in ng/mL.

Ask: Give the measured Cmax for C=CC(=O)N1CC[C@@H](n2nc(-c3ccc(Oc4c(F)c(F)cc(F)c4F)cc3F)c3c(N)ncnc32)C1 [Compound 45]
Reply: 2460

---

ASSAY_OVERVIEW: Toxicokinetic (TK) study in rats, 28-day
Assay type: in vivo, rat
EXPERIMENTAL_CONTEXT: female, rat, in vivo, 40 mg/kg, Study Day 28, Female, read-out: AUC0-24 h
QUANTITY_NAME: AUC(0-t) (ng·h/mL)
Please give a number only; it is taken to be in ng·h/mL.

Ask: Give the measured AUC(0-t) for C=CC(=O)N1CC[C@@H](n2nc(-c3ccc(Oc4c(F)c(F)cc(F)c4F)cc3F)c3c(N)ncnc32)C1
Reply: 17300

---

ASSAY_OVERVIEW: Toxicokinetic (TK) study in dogs, 28-day
Type: in vivo, dog
EXPERIMENTAL_CONTEXT: male, dog, in vivo, 105 mg/kg/day, Study Day 28, Male, read-out: AUC0-24 h
QUANTITY_NAME: AUC(0-t) (ng·h/mL)
Please give a number only; it is taken to be in ng·h/mL.

Ask: Give the measured AUC(0-t) for C=CC(=O)N1CC[C@@H](n2nc(-c3ccc(Oc4c(F)c(F)cc(F)c4F)cc3F)c3c(N)ncnc32)C1 [Compound 45]
Reply: 16400

---

ASSAY_OVERVIEW: Pharmacokinetic study in Beagle dogs
Assay type: in vivo
EXPERIMENTAL_CONTEXT: dog, plasma, PO, 5 mg/kg, mean
QUANTITY_NAME: AUC(0-t) (ng·h/mL)
Please give a number only; it is taken to be in ng·h/mL.

Ask: Give the measured AUC(0-t) for C=CC(=O)N1CC[C@@H](n2nc(-c3ccc(Oc4c(F)c(F)cc(F)c4F)cc3F)c3c(N)ncnc32)C1
Reply: 650

---

MEASURED_TARGET: BTK wild type (Homo sapiens (Human), UniProt Q06187)
Sequence (Q06187 whole entry): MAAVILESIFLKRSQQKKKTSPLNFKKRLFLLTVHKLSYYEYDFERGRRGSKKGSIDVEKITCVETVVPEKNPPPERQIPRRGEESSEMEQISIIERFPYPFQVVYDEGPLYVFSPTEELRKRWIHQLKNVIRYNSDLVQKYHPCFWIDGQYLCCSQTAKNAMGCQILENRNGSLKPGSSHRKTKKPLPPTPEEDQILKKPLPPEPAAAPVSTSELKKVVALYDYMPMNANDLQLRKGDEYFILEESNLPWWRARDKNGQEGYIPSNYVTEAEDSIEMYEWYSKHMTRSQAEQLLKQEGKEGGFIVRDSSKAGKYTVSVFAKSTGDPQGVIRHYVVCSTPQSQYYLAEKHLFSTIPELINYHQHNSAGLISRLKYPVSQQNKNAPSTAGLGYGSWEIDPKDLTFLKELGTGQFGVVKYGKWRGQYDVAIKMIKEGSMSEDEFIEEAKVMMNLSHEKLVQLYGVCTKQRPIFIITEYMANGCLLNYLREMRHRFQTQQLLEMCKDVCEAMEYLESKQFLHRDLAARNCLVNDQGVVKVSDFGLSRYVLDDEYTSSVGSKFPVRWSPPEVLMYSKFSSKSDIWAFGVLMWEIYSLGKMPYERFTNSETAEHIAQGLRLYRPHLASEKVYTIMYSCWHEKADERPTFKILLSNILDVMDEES
ASSAY_OVERVIEW: Inhibition assay of BTK kinase activity (HTRF)
Type: biochemical
EXPERIMENTAL_CONTEXT: read-out: BTK IC50
Exercise: state measured IC50 for each of the compounds provided.
Please give a number only; it is taken to be in nM.

Ask: Recall the reported IC50 of C=CC(=O)N1CCC[C@@H](n2nc(-c3ccc(Oc4c(F)c(F)cc(F)c4F)cc3F)c3c(N)ncnc32)C1 [Compound 33] when tested on BTK wild type (Homo sapiens (Human), UniProt Q06187).
Reply: 2

Ask: Recall the reported IC50 of Nc1ncnc2c1c(-c1ccc(C(=O)c3cccc(F)c3)cc1F)nn2C1CCCN(C(=O)C2CO2)C1 (stereo not shown) [Compound 9] when tested on BTK wild type (Homo sapiens (Human), UniProt Q06187).
Reply: 83

Ask: Recall the reported IC50 of C=CC(=O)N1CC[C@@H](n2nc(-c3ccc(Oc4cccc(F)c4)cc3F)c3c(N)ncnc32)C1 [Compound 94] when tested on BTK wild type (Homo sapiens (Human), UniProt Q06187).
Reply: 1

Ask: Recall the reported IC50 of Nc1ncnc2c1c(-c1ccc(Oc3c(F)c(F)cc(F)c3F)cc1F)nn2[C@@H]1CCCN(C(=O)CF)C1 [Compound 107] when tested on BTK wild type (Homo sapiens (Human), UniProt Q06187).
Reply: 101

---

MEASURED_TARGET: BTK wild type (Homo sapiens (Human))
ASSAY_OVERVIEW: Inhibition assay of BTK kinase activity (HTRF)
Assay type: biochemical
EXPERIMENTAL_CONTEXT: read-out: BTK IC50
pIC50: −log10 of the molar value.
Is pIC50 at least 8? Then MET. If not, NOT MET.

Ask: Is pIC50 at least 8? Consider C/C(O)=C(/C#N)C(=O)N1CCCC(n2nc(-c3ccc(C(=O)c4cccc(F)c4)cc3F)c3c(N)ncnc32)C1 (stereo not shown) [Compound 7]
Reply: NOT MET

Ask: Is pIC50 at least 8? Consider C=CS(=O)(=O)N1CC[C@@H](n2nc(-c3ccc(Oc4c(F)c(F)cc(F)c4F)cc3F)c3c(N)ncnc32)C1 [Compound 116]
Reply: MET

Ask: Is pIC50 at least 8? Consider Nc1ncnc2c1c(-c1ccc(Oc3c(F)c(F)cc(F)c3F)cc1F)nn2[C@@H]1CCCN(C(=O)C(Cl)Cl)C1 [Compound 101]
Reply: NOT MET

Ask: Is pIC50 at least 8? Consider C=CC(=O)NC(C)C(C)n1nc(-c2ccc(Oc3c(F)c(F)cc(F)c3F)cc2F)c2c(N)ncnc21 (stereo not shown) [Compound 83]
Reply: NOT MET

Ask: Is pIC50 at least 8? Consider N#C/C=C\C(=O)N1CC[C@@H](n2nc(-c3ccc(Oc4c(F)c(F)cc(F)c4F)cc3F)c3c(N)ncnc32)C1 [Compound 98]
Reply: MET

---

ASSAY_OVERVIEW: Toxicokinetic (TK) study in dogs, 28-day
Type: in vivo, dog
EXPERIMENTAL_CONTEXT: female, dog, in vivo, 15 mg/kg/day, Study Day 28, Female
QUANTITY_NAME: Cmax
Phrase the answer as number then unit, nothing more needed.

Ask: Give the measured Cmax for C=CC(=O)N1CC[C@@H](n2nc(-c3ccc(Oc4c(F)c(F)cc(F)c4F)cc3F)c3c(N)ncnc32)C1
Reply: 687 ng/mL

---

ASSAY_OVERVIEW: Toxicokinetic (TK) study in dogs, 28-day
Type: in vivo, dog
EXPERIMENTAL_CONTEXT: male, dog, in vivo, 105 mg/kg/day, Study Day 28, Male
QUANTITY_NAME: Tmax (h)
Please give a number only; it is taken to be in h.

Ask: Give the measured Tmax for C=CC(=O)N1CC[C@@H](n2nc(-c3ccc(Oc4c(F)c(F)cc(F)c4F)cc3F)c3c(N)ncnc32)C1
Reply: 2

---

ASSAY_OVERVIEW: Pharmacokinetic study in male SD rats
Type: in vivo
EXPERIMENTAL_CONTEXT: rat, plasma, PO, 10 mg/kg, mean
QUANTITY_NAME: AUC(0-inf) (ng·h/mL)
Please give a number only; it is taken to be in ng·h/mL.

Ask: Give the measured AUC(0-inf) for C=CC(=O)N1CC[C@@H](n2nc(-c3ccc(Oc4c(F)c(F)cc(F)c4F)cc3F)c3c(N)ncnc32)C1 [Compound 45]
Reply: 3260
